reported metric: melting point

compound	reported metric	reported value
Cc1nc2cc(CN)ccc2c(=O)n1C1CCC(=O)NC1=O.Cl (centres unmarked)	melting point	313 to 315 °C
Cc1nc2ccc(F)cc2c(=O)n1C1CCC(=O)NC1=O (centres unmarked) [Example 5.3]	melting point	273 to 275 °C
Cc1ccc2ncn(C3CCC(=O)NC3=O)c(=O)c2c1 (centres unmarked) [Example 5.9]	melting point	285 to 287 °C
CCCCCCNC(=O)NCc1ccc2nc(C)n(C3CCC(=O)NC3=O)c(=O)c2c1 (centres unmarked)	melting point	220 to 222 °C
Cc1nc2ccc(CNC(=O)N(C)C)cc2c(=O)n1C1CCC(=O)NC1=O (centres unmarked) [Example 5.15]	melting point	264 to 268 °C
Cc1nc2ccc(CNC(=O)Nc3ccc(Cl)cc3)cc2c(=O)n1C1CCC(=O)NC1=O (centres unmarked)	melting point	225 to 227 °C
O=C1CCC(n2cnc3ccc(Cl)cc3c2=O)C(=O)N1 (centres unmarked) [Example 5.7]	melting point	302 to 305 °C
Cc1nc2ccc(CNC(=O)OC(C)(C)C)cc2c(=O)n1C1CCC(=O)NC1=O (centres unmarked) [Example 5.11]	melting point	212.5 to 214.5 °C
Cc1cccc2c(=O)n(C3CCC(=O)NC3=O)c(C)nc12 (centres unmarked)	melting point	296 to 298 °C
Cc1nc2ccc(CN)cc2c(=O)n1C1CCC(=O)NC1=O.Cl (centres unmarked)	melting point	299 to 301 °C
Cc1ccc2nc(C)n(C3CCC(=O)NC3=O)c(=O)c2c1 (centres unmarked) [Example 5.1]	melting point	270 to 272 °C
Cc1nc2c(Cl)cc(Cl)cc2c(=O)n1C1CCC(=O)NC1=O (centres unmarked) [Example 5.46]	melting point	238 to 240 °C
Cc1nc2c(C(F)(F)F)cccc2c(=O)n1C1CCC(=O)NC1=O (centres unmarked)	melting point	351 to 353 °C
Cc1nc2cc(C(F)(F)F)ccc2c(=O)n1C1CCC(=O)NC1=O (centres unmarked) [Example 5.32]	melting point	277 to 279 °C
Cc1cccc2c(=O)n(C3CCC(=O)NC3=O)cnc12 (centres unmarked) [Example 5.44]	melting point	290 to 292 °C
Cc1ccc2c(=O)n(C3CCC(=O)NC3=O)c(C)nc2c1 (centres unmarked)	melting point	305 °C (dec.)
Cc1nc2ccc(CNC(=O)C3CC3)cc2c(=O)n1C1CCC(=O)NC1=O (centres unmarked)	melting point	281 to 283 °C
Cc1nc2cc(CNC(=O)OC(C)(C)C)ccc2c(=O)n1C1CCC(=O)NC1=O (centres unmarked) [Example 5.36]	melting point	240 to 242 °C
Cc1ccc2c(=O)n(C3CCC(=O)NC3=O)cnc2c1 (centres unmarked) [Example 5.34]	melting point	313 to 315 °C
Cc1nc2cc(F)ccc2c(=O)n1C1CCC(=O)NC1=O (centres unmarked)	melting point	243 to 245 °C
Cc1nc2ccc(CNC(=O)c3ccc(OC(F)(F)F)cc3)cc2c(=O)n1C1CCC(=O)NC1=O (centres unmarked)	melting point	165 to 167 °C
Cc1nc2ccc(CNC(=O)c3cccc(C(F)(F)F)c3)cc2c(=O)n1C1CCC(=O)NC1=O (centres unmarked)	melting point	220 to 222 °C
Cc1nc2c(Br)cccc2c(=O)n1C1CCC(=O)NC1=O (centres unmarked)	melting point	307 to 309 °C
Cc1ccc(NC(=O)NCc2ccc3nc(C)n(C4CCC(=O)NC4=O)c(=O)c3c2)cc1Cl (centres unmarked)	melting point	186 to 188 °C
Cc1nc2cc(Cl)ccc2c(=O)n1C1CCC(=O)NC1=O (centres unmarked)	melting point	291 to 293 °C
Cc1nc2ccc(Cl)cc2c(=O)n1C1CCC(=O)NC1=O (centres unmarked) [Example 5.4]	melting point	276 to 278 °C
Cc1nc2ccc(CNC(=O)c3ccc(Cl)cc3)cc2c(=O)n1C1CCC(=O)NC1=O (centres unmarked)	melting point	267 to 269 °C
Cc1nc2ccc(CNC(=O)Nc3ccc(OC(F)(F)F)cc3)cc2c(=O)n1C1CCC(=O)NC1=O (centres unmarked)	melting point	201 to 203 °C
Cc1nc2ccc(CNC(=O)c3ccc(C(F)(F)F)cc3)cc2c(=O)n1C1CCC(=O)NC1=O (centres unmarked)	melting point	221 to 223 °C
Cc1nc2ccc(CNC(=O)c3ccc(SC(F)(F)F)cc3)cc2c(=O)n1C1CCC(=O)NC1=O (centres unmarked)	melting point	169 to 171 °C
CCCCCCC(=O)NCc1ccc2nc(C)n(C3CCC(=O)NC3=O)c(=O)c2c1 (centres unmarked)	melting point	223 to 225 °C
O=C1CCC(n2cnc3cc(F)ccc3c2=O)C(=O)N1 (centres unmarked) [Example 5.33]	melting point	296 to 298 °C
Cc1cccc(NC(=O)NCc2ccc3nc(C)n(C4CCC(=O)NC4=O)c(=O)c3c2)c1 (centres unmarked)	melting point	200 to 202 °C
Cc1nc2ccc(CNC(=O)Cc3ccc(Cl)cc3)cc2c(=O)n1C1CCC(=O)NC1=O (centres unmarked)	melting point	229.5 to 231.5 °C
Cc1nc2ccc(O)cc2c(=O)n1C1CCC(=O)NC1=O (centres unmarked)	melting point	315 to 317 °C
Cc1nc2c(Cl)cccc2c(=O)n1C1CCC(=O)NC1=O (centres unmarked) [Example 5.40]	melting point	290 to 292 °C
COc1cc2nc(C)n(C3CCC(=O)NC3=O)c(=O)c2cc1OC (centres unmarked)	melting point	325 °C (dec.)
Cc1nc2c(O)cccc2c(=O)n1C1CCC(=O)NC1=O (centres unmarked)	melting point	266 to 268 °C
